Measured values drawn from patent US20260294964A1 for this set.

Tested on: microorganisms that decompose organic matter (bacteria/fungi)
Assay: Culture of microorganisms that decompose organic matter
Format: cell-based
Details: microorganisms that decompose organic matter (bacteria/fungi)
assay_readout: concentration in culture medium at which microorganisms multiply strongly (ppm)
Kindly answer with a numeric value in ppm, unit omitted.

These recorded examples may help you get a feel for the data.
[
  {
    "molecule": "O=C([O-])CCC(=O)[O-].[Na+].[Na+] [succinate Na, Na succinate]",
    "measured_on": "microorganisms that decompose organic matter (bacteria/fungi)",
    "result_value": 80
  },
  {
    "molecule": "[Cl-].[Cl-].[Zn+2] [ZnCl2]",
    "measured_on": "microorganisms that decompose organic matter (bacteria/fungi)",
    "result_value": 12
  },
  {
    "molecule": "O=C([O-])CC(O)C(=O)[O-].[Na+].[Na+] (centres unmarked) [malate Na, Na malate]",
    "measured_on": "microorganisms that decompose organic matter (bacteria/fungi)",
    "result_value": 80
  },
  {
    "molecule": "O=C([O-])c1cc(O)c(O)c(O)c1.[Na+] [Na gallate]",
    "measured_on": "microorganisms that decompose organic matter (bacteria/fungi)",
    "result_value": 5
  }
]

// returns concentration in culture medium at which microorganisms multiply strongly for O=C([O-])CC(O)(CC(=O)[O-])C(=O)[O-].[Na+].[Na+].[Na+] [citrate Na, Na citrate] with microorganisms that decompose organic matter (bacteria/fungi); value = 80
